target.system: Aspartate aminotransferase, cytoplasmic (Homo sapiens)
experimental.details: Inhibition of GOT1 (unknown origin) using aspartic acid and alpha-ketoglutaric acid as substrates assessed as reduction in absorbance of NADH incubated for 20 mins in presence of MDH1 and NADH by HTS assay
observed.property: IC50 (µM)

{"molecule": "NNc1nnc(NN)c2ccccc12 [DIHYDRALAZINE]", "observed.property": "IC50", "inequality.operator": ">", "endpoint.result": 100}
{"molecule": "Nc1cccc2cnncc12", "observed.property": "IC50", "inequality.operator": ">", "endpoint.result": 100}
{"molecule": "NNc1nnc(Cl)c2ccccc12", "observed.property": "IC50", "inequality.operator": "=", "endpoint.result": 65.4}
{"molecule": "NNc1nncc2ccccc12 [HYDRALAZINE]", "observed.property": "IC50", "inequality.operator": "=", "endpoint.result": 26.6}
{"molecule": "NNc1cccnn1", "observed.property": "IC50", "inequality.operator": "=", "endpoint.result": 29.4}
{"molecule": "Nc1cccnn1", "observed.property": "IC50", "inequality.operator": ">", "endpoint.result": 100}

###

target.system: Aspartate aminotransferase, cytoplasmic (Homo sapiens, UniProt P17174)
Sequence (P17174 whole entry): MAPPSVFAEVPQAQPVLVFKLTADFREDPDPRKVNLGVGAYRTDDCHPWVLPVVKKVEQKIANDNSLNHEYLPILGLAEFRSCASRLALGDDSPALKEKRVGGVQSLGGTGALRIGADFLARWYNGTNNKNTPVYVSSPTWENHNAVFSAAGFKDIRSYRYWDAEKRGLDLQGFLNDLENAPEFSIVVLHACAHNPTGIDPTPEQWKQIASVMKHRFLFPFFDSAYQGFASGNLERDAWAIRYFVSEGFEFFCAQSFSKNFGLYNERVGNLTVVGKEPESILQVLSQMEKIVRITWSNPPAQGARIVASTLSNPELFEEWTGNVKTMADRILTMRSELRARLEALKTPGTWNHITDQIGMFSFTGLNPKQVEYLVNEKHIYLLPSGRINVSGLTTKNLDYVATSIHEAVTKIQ
Where a name gives a salt, the structure may show the parent alone.

{"molecule": "NNc1nncc2ccccc12 [HYDRALAZINE HYDROCHLORIDE]", "Kd / µM": 16.5}

###

target.system: Aspartate aminotransferase, cytoplasmic (Homo sapiens, UniProt P17174)
experimental.details: Noncompetitive inhibition of GOT1 (unknown origin) using aspartic acid as substrate assessed as inhibition constant by Michaelis-Menten equation based kinetic analysis
pKi: −log10 of the molar value. Structures can show the parent of a compound that is named as a salt.

{"compound": "NNc1nncc2ccccc12 [HYDRALAZINE HYDROCHLORIDE]", "pKi": 4.83}

###

target.system: Aspartate aminotransferase, cytoplasmic (Homo sapiens, UniProt P17174)
experimental.details: Noncompetitive inhibition of GOT1 (unknown origin) using alpha-Ketoglutaric acid as substrate assessed as inhibition constant by Michaelis-Menten equation based kinetic analysis
Counter-ions that a name gives are not always drawn.

{"molecule": "NNc1nncc2ccccc12 [HYDRALAZINE HYDROCHLORIDE]", "Ki / µM": 20.2}

###

target.system: UniProt:P17174
experimental.details: Inhibition of GOT1 (unknown origin)
pIC50: −log10 of the molar value. Counter-ions that a name gives are not always drawn.

{"compound": "NC1Cc2ccccc2N(O)C1=O (stereo not drawn)", "pIC50": 5.10}
{"compound": "O=C1Cc2cc(CCN3CCN(c4nsc5ccccc45)CC3)c(Cl)cc2N1 [ZIPRASIDONE]", "pIC50": 5.27}
{"compound": "NNc1nncc2ccccc12 [HYDRALAZINE HYDROCHLORIDE]", "pIC50": 4.57}

###

target.system: UniProt P17174
experimental.details: Inhibition of human recombinant GOT1 using aspartic acid and alpha-ketoglutaric acid as substrates incubated in presence of MDH1 and NADH
observed.property: IC50 (nM)

{"smiles.input": "CC(C)=CCc1cc(/C=C2\\OC(=O)C(c3cc(CC=C(C)C)c(O)cc3O)=C2O)ccc1O", "target.system": "UniProt P17174", "endpoint.result": 2920}

###

target.system: Aspartate aminotransferase, cytoplasmic (Homo sapiens)
experimental.details: Inhibition of C-terminal His6-tagged human recombinant GOT1 expressed in Escherichia coli BL21 (DE3) cells using aspartic acid and alpha-ketoglutaric acid as substrates incubated in presence of MDH1 and NADH
pIC50: −log10 of the molar value.
observed.property: pIC50

{"smiles.input": "COc1ccc(-c2ccc3cc(C(=O)O)ccc3c2)cc1C12CC3CC(CC(C3)C1)C2", "endpoint.result": 4.66}
